Where do the numbers come from? From patent US20260347464.

Parameter EC50: see the listing below.
Target: T1, MusCD100-His (mouse, UniProt O09126)
T1 chain: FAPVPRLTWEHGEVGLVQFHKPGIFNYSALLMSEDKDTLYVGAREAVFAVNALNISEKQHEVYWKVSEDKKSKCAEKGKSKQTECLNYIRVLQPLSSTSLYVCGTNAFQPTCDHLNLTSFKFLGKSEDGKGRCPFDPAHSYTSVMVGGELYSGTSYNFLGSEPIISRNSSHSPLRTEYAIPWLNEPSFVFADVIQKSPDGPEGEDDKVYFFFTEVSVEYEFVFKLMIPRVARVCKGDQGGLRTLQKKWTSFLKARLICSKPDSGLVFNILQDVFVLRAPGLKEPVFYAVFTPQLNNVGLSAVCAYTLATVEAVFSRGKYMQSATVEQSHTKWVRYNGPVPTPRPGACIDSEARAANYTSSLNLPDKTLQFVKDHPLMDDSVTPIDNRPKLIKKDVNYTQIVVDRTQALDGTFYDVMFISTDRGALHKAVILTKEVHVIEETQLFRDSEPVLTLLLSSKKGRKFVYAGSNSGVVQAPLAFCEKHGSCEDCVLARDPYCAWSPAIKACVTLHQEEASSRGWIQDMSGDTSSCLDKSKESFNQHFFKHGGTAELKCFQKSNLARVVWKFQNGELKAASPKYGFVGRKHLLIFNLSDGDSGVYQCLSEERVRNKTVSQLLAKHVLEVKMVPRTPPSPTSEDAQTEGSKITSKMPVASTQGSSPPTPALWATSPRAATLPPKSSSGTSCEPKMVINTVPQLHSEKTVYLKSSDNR
Experiment: ELISA
MEASURED QUANTITY: EC50

BINDER	MEASURED QUANTITY	RECORDED VALUE
C-B71 (antibody, V domains shown) VH: QVQLQESGPGLVKPSQTLSLTCTVSGGSISSGGYYWSWIRQHPGKGLEWIGYIYYSGSTYYNPSLKSRVTISVDTSKNQFSLKLSSVTAADTAVYYCAREGVAAAGIDYWGQGTPVTVSS VL: NIQLTQSPSSVSASVGDRVTITCRASQGISSWLAWYQQKPGKAPKLLISTASSVQSGVPTRFSASGSGTDFTLTISSLQPEDFATYYCQQGYRTPWTFGQGTKVEIK	EC50	0.00936 µg/mL
H12 (antibody, V domains shown) VH: QVQLQESGPGLVKPSGTLSLTCAVSGGSISSSNWWSWVRQPPGKGLEWIGEIYHSGSTNYNPSLKSRVTISVDKSKNQFSLKLSSVTAADTAVYYCARFVSSGYLGAFDIWGQGTMVTVSS VL: QSVLTQPPSVSVSPGQTASITCSGDRLGDKYSYWYQQKPGQSPVLVIYQDSKRPSGIPERFSGSNSGNTATLTISGTQAMDEADYYCQVWDSSTAVFGGGTKLTVL	EC50	0.0112 µg/mL
